- study target: IRAK4 (Homo sapiens)
- Construct: endogenous in cells; host or cells: Karpas299
- Sequence (Q9NWZ3 1-460): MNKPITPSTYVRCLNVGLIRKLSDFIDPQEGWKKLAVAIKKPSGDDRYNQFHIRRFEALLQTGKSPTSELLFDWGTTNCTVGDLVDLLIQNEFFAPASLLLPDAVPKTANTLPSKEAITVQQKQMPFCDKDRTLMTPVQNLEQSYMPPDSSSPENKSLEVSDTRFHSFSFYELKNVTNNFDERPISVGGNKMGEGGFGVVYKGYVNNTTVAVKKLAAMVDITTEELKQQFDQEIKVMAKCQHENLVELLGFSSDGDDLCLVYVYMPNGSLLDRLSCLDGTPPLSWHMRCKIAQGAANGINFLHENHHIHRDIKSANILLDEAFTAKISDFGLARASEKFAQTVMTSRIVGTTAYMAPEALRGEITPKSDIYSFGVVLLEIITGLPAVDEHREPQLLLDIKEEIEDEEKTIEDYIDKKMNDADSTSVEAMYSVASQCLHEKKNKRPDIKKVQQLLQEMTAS
- assay explanation: IRAK4 Degradation Assay (Karpas299, HTRF/TR-FRET)
- Format: cell-based
- measurement parameters: Karpas-299 cells, 24 h treatment; read-out: IRAK4 in Karpas-299 (24 h) DC50
Category key, based on recorded DC50: I = under 2 nM, II = from 2 nM up to 3 nM, III = 3 nM and over

molecule: O=C1CC[C@H](c2c(F)cc(N3CC(CN4CCN([C@H]5CC[C@H](n6cc(NC(=O)c7coc(-c8ccnc(NCC9CC9)c8)n7)c(C(F)F)n6)CC5)CC4)C3)cc2F)C(=O)N1
qualitative label: II

molecule: CC(C)(O)c1cc2nn(C3CCC(N4C[C@@H]5CN(C6CN(c7cc(F)c([C@H]8CCC(=O)NC8=O)c(F)c7)C6)C[C@H]5C4)CC3)cc2cc1NC(=O)c1ccc2cc(C#N)cnn12 (some centres unmarked)
qualitative label: I

molecule: O=C1CCC(c2ccc(N3CC(C(=O)N4CCN([C@H]5CC[C@H](n6cc(NC(=O)c7coc(-c8ccnc(NCC(F)(F)F)c8)n7)c(C(F)F)n6)CC5)CC4)C3)cc2)C(=O)N1 (some centres unmarked)
qualitative label: I

molecule: CC(C)(O)c1cc2nn([C@H]3CC[C@H](N4CCN(CC5CN(c6cc(F)c([C@H]7CCC(=O)NC7=O)c(F)c6)C5)CC4)CC3)cc2cc1NC(=O)c1ccc2n1NCC(C#N)=C2
qualitative label: I

molecule: CC(C)(O)c1cc2nn([C@H]3CC[C@H](N4CCN(C[C@H]5CCN(c6cc(F)c(N7CCC(=O)NC7=O)c(F)c6)C5)CC4)CC3)cc2cc1NC(=O)c1ccc2cc(C#N)cnn12
qualitative label: III

molecule: CC(C)(O)c1cc2nn([C@H]3CC[C@H](N4CCN([C@H]5C[C@H](c6ccc(N[C@H]7CCC(=O)NC7=O)cc6)C5)CC4)CC3)cc2cc1NC(=O)c1ccc2cc(C#N)cnn12
qualitative label: I

molecule: Cn1c(=O)n(C2CCC(=O)NC2=O)c2cccc(CCCN3CCN([C@H]4CC[C@H](n5cc6cc(NC(=O)c7ccc8cc(C#N)cnn78)c(C(C)(C)O)cc6n5)CC4)CC3)c21 (some centres unmarked)
qualitative label: I

molecule: COC[C@H]1CN([C@H]2CC[C@H](n3cc4cc(NC(=O)c5ccc6cc(C#N)cnn56)c(C(C)(C)O)cc4n3)CC2)CCN1C1CCN(c2ccc(C3CCC(=O)NC3=O)nc2C)CC1 (some centres unmarked)
qualitative label: II

molecule: CC(C)(O)c1cc2nn([C@H]3CC[C@H](N4CCN(C(=O)C5CN(c6cc(F)c(N7CCC(=O)NC7=O)c(F)c6)C5)CC4)CC3)cc2cc1NC(=O)c1cccc(C(F)(F)F)n1
qualitative label: I

molecule: CC(C)(O)c1cc2nn([C@H]3CC[C@H](N4CCN(C5CCN(c6cc(F)c([C@H]7CCC(=O)NC7=O)c(F)c6)CC5)C[C@@H]4CO)CC3)cc2cc1NC(=O)c1ccc2cc(C#N)cnn12
qualitative label: I

molecule: CC(C)(O)c1cc2nn([C@H]3CC[C@H](N4CCN(C5CCN(c6ccc7c(c6)C(=O)N(C6CCC(=O)NC6=O)C7=O)CC5)CC4)CC3)cc2cc1NC(=O)c1ccc2cc(C#N)cnn12 (some centres unmarked)
qualitative label: I

molecule: O=C1CCN(c2ccc(N3CC[C@H](C(=O)N4CCN([C@H]5CC[C@H](n6cc(NC(=O)c7coc(-c8ccnc(NCC(F)(F)F)c8)n7)c(C(F)F)n6)CC5)CC4)C3)cc2)C(=O)N1
qualitative label: III

molecule: COc1cc2nn(C3CCN(C4CCN(C(=O)C5CN(c6ccc(N7CCC(=O)NC7=O)cc6)C5)CC4)CC3)cc2cc1NC(=O)c1cccc(C(F)(F)F)n1
qualitative label: III

molecule: CC(C)(O)c1cc2nn([C@H]3CC[C@H](CN4CCN(C(=O)C5CN(c6cc(F)c([C@H]7CCC(=O)NC7=O)c(F)c6)C5)CC4)CC3)cc2cc1NC(=O)c1csc(-c2cn[nH]c2)n1
qualitative label: I

molecule: Cc1cc(-c2nc(C(=O)Nc3cn(-c4ccc(N5CCN(C(=O)C6CN(c7ccc(N8CCC(=O)NC8=O)cc7)C6)CC5)nc4)nc3C(N)=O)co2)ccn1
qualitative label: III

molecule: Cc1nc(C2CCC(=O)NC2=O)ccc1N1CCC(N2CCN(C[C@H]3CC[C@H](n4cc5cc(NC(=O)c6ccc7cc(C#N)cnn67)c(C(C)(C)O)cc5n4)CC3)CC2)CC1 (some centres unmarked)
qualitative label: II

molecule: N#Cc1cnn2c(C(=O)Nc3cc4cn([C@H]5CC[C@H](N6CCN(C7CN(c8cc(F)c([C@H]9CCC(=O)NC9=O)c(F)c8)C7)CC6)CC5)nc4c4c3OC(F)(F)O4)ccc2c1
qualitative label: III

molecule: CC(C)(O)c1cc2nn(C3CCN([C@@H]4CCN(C(=O)C5CN(c6cc(F)c([C@H]7CCC(=O)NC7=O)c(F)c6)C5)CC4(F)F)CC3)cc2cc1NC(=O)c1ccc2cc(C#N)cnn12
qualitative label: II

molecule: COc1cc2nn(C3CCN(C4CCN(C(=O)[C@@H]5CCN(c6cc(F)c([C@H]7CCC(=O)NC7=O)c(F)c6)C5)CC4)CC3)cc2cc1NC(=O)c1cccc(C(F)(F)F)n1
qualitative label: III
